The reported numbers originate from ChEMBL document CHEMBL3751738.

- Tested on: Rattus norvegicus
- assayExplanation: Inhibition of oxonic acid-induced high uric acid level in Sprague-Dawley rat plasma at 10 mg/kg, po after 1 hr
- Format: functional
Each entry gets false if its inhibition in vivo at 10 mg/kg stays under 4%, and true if its inhibition in vivo at 10 mg/kg is 4% or above.

> print(dat)
                                     smiles  categorylabel
1  Cc1nc(-c2cc3cc(OC(C)C)cc(C#N)c3[nH]2)sc1C(=O)O           true
2  Cc1nc(-c2cc3cc(Oc4ccccc4)cc([N+](=O)[O-])c3[nH]2)sc1C(=O)O           true

**Q:** Is inhibition in vivo at 10 mg/kg at least 4%? Consider `Cc1nc(-c2cc3cc(OC(C)C)cc([N+](=O)[O-])c3[nH]2)sc1C(=O)O`
**A:** true

**Q:** # repeat for `Cc1nc(-c2cc3cc(CNS(C)(=O)=O)cc([N+](=O)[O-])c3[nH]2)sc1C(=O)O`
**A:** false

**Q:** # repeat for `Cc1nc(-c2cc3cc(OC4CCCC4)cc(C#N)c3[nH]2)sc1C(=O)O`
**A:** false

**Q:** # repeat for `Cc1nc(-c2ccc(OCC(C)C)c(C#N)c2)sc1C(=O)O`
**A:** true
